- System: production of CD69 by B lymphocytes in human whole blood activated with goat F(ab')2 anti-human IgM
- testMethodNotes: CD69 Whole Blood Assay (CD69 Hu Blood FACS)
- Type: cell-based
- statedConditions: anti-IgM stimulated, 20 hour incubation, CD69+ of CD20+ cells, Table 1
Binary label based on CD69 Hu Blood FACS IC70 with cut-off 60 nM: below gives YES, not below gives NO.

chemicalString | groupLabel
O=C1c2cc3c(n2CCN1c1cc(F)cc(-c2cc(Nc4ccc(N5CCN(C6COC6)CC5)cn4)c4ncnn4c2)c1CO)CCCC3 | YES
CN1CCN(c2ccc(Nc3cc(-c4cc(F)cc(N5CCc6c(sc7c6CCCC7)C5=O)c4CO)cn4ccnc34)nc2)CC1 | NO
CN1CCN(c2ccc(Nc3cc(-c4cc(F)cc(N5CCn6c(cc7c6CCCC7)C5=O)c4CO)cn4ccnc34)nc2)CC1 | YES
O=c1c2sc3c(c2cnn1-c1cc(F)cc(-c2cc(Nc4ccc(N5CCN(C6COC6)CC5)cn4)c4nccn4n2)c1CO)CCCC3 | NO
CN1CCN(c2ccc(Nc3nc(-c4cc(F)cc(N5CCn6c(cc7c6CCCC7)C5=O)c4CO)cn4ccnc34)nc2)CC1 | NO

[Q] Does the reported CD69 Hu Blood FACS IC70 of the following compound sit strictly below 60 nM? O=C1c2cc3c(n2CCN1c1cc(F)cc(-c2cc(Nc4ccc(N5CCN(C6COC6)CC5)cn4)c4nccn4c2)c1CO)CCCC3
[A] YES

[Q] Then this compound: O=C1c2cc3c(n2CCN1c1nccc(-c2cc(Nc4ccc(N5CCN(C6COC6)CC5)cn4)c4nccn4n2)c1CO)CCCC3
[A] NO

[Q] Then this compound: CC1(C)Cc2cc3n(c2C1)CCN(c1cc(F)cc(-c2cc(Nc4ccc(N5CCN(C6COC6)CC5)cn4)c4nccn4n2)c1CO)C3=O
[A] YES

* * *

- System: production of CD69 by B lymphocytes in human whole blood activated with goat F(ab')2 anti-human IgM
- testMethodNotes: CD69 Whole Blood Assay (CD69 Hu Blood FACS)
- Format: cell-based
- statedConditions: anti-IgM stimulated, 20 hour incubation, CD69+ of CD20+ cells, Table 1
- From the text: A CD69 Whole Blood Assay can be conducted on Formula I compounds to determine the ability of compounds to inhibit the production of CD69 by B lymphocytes in human whole blood activated by crosslinking surface IgM with goat F(ab′)2 anti-human IgM (Example 907). CD69 is a type II C-type lectin involved in lymphocyte migration and cytokine secretion. […]
Listed compounds paired with reported CD69 Hu Blood FACS IC70
I only need the number, in µM, no unit after it.

compound | CD69 Hu Blood FACS IC70 [µM]
O=C1c2sc3c(c2CCN1c1cc(F)cc(-c2cc(Nc4ccc(N5CCN(C6COC6)CC5)cn4)c4nccn4n2)c1CO)CCCC3 [Compound 111] | 0.313
O=C1c2cc3c(n2CCN1c1cc(F)cc(-c2cn4ccnc4c(Nc4ccc(N5CCN(C6COC6)CC5)cn4)n2)c1CO)CCCC3 [Compound 107] | 0.939
CN1CCN(c2ccc(Nc3cc(-c4cc(F)cc(N5CCn6c(cc7c6CCCC7)C5=O)c4CO)nn4ccnc34)nc2)CC1 [Compound 104] | 0.096
Cn1cnc2c(Nc3ccc(N4CCN(C5COC5)CC4)cn3)cc(-c3cc(F)cc(N4CCn5c(cc6c5CCCC6)C4=O)c3CO)cc21 [Compound 109] | 1.3
O=C1c2cc3c(n2CCN1c1cc(F)cc(-c2cc(Nc4ccc(N5CCN(C6COC6)CC5)cn4)c4nccn4n2)c1CO)CCCC3 [Compound 105] | 0.049

Field: next compound
[Q] Requested field: CD69 Hu Blood FACS IC70. Item: CC1(C)Cc2sc3c(c2C1)CCN(c1cc(F)cc(-c2cc(Nc4ccc(N5CCN(C6COC6)CC5)cn4)c4nccn4n2)c1CO)C3=O [Compound 113]
[A] 0.012
